Reported pIC50 is given for each of the following compounds.
- Tested System: PAI-1 (Homo sapiens, UniProt P05121)
- Sequence (P05121 24-402): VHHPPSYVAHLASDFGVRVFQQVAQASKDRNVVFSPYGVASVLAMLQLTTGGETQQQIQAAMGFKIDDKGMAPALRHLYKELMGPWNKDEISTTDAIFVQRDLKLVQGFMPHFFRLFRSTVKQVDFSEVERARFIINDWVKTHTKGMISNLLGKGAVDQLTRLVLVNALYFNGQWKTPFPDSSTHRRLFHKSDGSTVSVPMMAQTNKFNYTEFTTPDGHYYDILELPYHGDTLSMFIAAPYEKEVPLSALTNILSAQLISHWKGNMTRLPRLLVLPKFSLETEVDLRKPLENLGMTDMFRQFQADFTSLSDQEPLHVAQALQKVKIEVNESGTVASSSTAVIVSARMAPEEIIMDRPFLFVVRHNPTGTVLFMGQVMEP
- Assay Info: biochemical
- Assay type: biochemical
- Condition Parameters: PAI chromogenic substrate assay
pIC50: −log10 of the molar value. Structures can show the parent of a compound that is named as a salt.

Compound: Cc1ccc(/C=c2\[nH]c(=O)/c(=C/c3ccc(SCCN(C)C)s3)[nH]c2=O)cc1 [Compound 5460.HCl]
pIC50: 4.90
--
Compound: CN(C)CCSc1ccc(/C=c2\[nH]c(=O)/c(=C/c3cn(C)c4ccccc34)[nH]c2=O)cc1 [Compound 5497.HCl]
pIC50: 4.94
--
Compound: COc1cc(/C=c2\[nH]c(=O)/c(=C/c3ccc(SCCN(C)C)cc3)[nH]c2=O)ccc1OCc1ccc([N+](=O)[O-])cc1 [Compound 5490.HCl]
pIC50: 4.97
--
Compound: CSc1ccc(/C=c2\[nH]c(=O)/c(=C/c3ccc(SCCN(C)C)cc3)[nH]c2=O)cc1 [Compound 5426.HCl]
pIC50: 5.27
--
Compound: CN(C)CCSc1ccc(/C=c2\[nH]c(=O)/c(=C/c3cccc(OCc4ccccc4)c3)[nH]c2=O)s1 [Compound 5487.HCl]
pIC50: 5.14
--
Compound: CN(C)CCSc1ccc(/C=c2\[nH]c(=O)/c(=C/c3ccc(N(C)C)cc3)[nH]c2=O)s1 [Compound 5280]
pIC50: 4.70
--
Compound: CN(C)CCSc1ccc(/C=c2\[nH]c(=O)/c(=C/c3ccsc3)[nH]c2=O)s1 [Compound 5257]
pIC50: 5.15
